B1: KCNA3 (parent)
chain: GERVVINISGLRFETQLKTLCQFP

Variants of: B1
Test name: protein stability index of a GFP-peptide fusion (GPS, HEK-293T) (PSI 1-6); higher = more stable;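 further: lentivirally expressed fusions sorted by FACS into six bins by GFP to DsRed ratio, PSI derived from sequencing read proportions per bin multiplied by bin number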
Measurement parameters: c terminus: a fixed tail appended
Reported property: protein stability index
Provide a numeric answer; units are not to be included.

Example cases with answers are listed next.
{"Mutation descriptor": "P24F", "Reported property": "protein stability index", "Recorded number": 3.52}
{"Mutation descriptor": "L11N", "Reported property": "protein stability index", "Recorded number": 2.94}
{"Mutation descriptor": "I6K", "Reported property": "protein stability index", "Recorded number": 2.68}
{"Mutation descriptor": "G10F", "Reported property": "protein stability index", "Recorded number": 2.81}
{"Mutation descriptor": "I6P", "Reported property": "protein stability index", "Recorded number": 3.15}

Q: Supply protein stability index value. Item: F23E
A: 2.2

Q: Supply protein stability index value. Item: S9K
A: 2.4

Q: Supply protein stability index value. Item: I6S
A: 2.86

Q: Supply protein stability index value. Item: C21I
A: 3.26

Q: Supply protein stability index value. Item: R3N
A: 1.09
